Just for reference, paper PMC6278568 is where these values come from.

Quick reference for CC50 at 72 h among some compounds
- Method: Cytotoxicity in Ava-5 cells (XTT method)
- Format: cell-based
- Conditions: human, Ava5 cells (HCV subgenomic replicon cell line); Ava-5 cells, 72 h, XTT method; read-out: CC50 (concentration causing a 50% growth inhibition of uninfected ava-5 cells)
Value kind: CC50 at 72 h (µM)

1) COc1ccc(-c2coc3cc(OCC(O)CNCCc4c[nH]c5ccccc45)ccc3c2=O)cc1OC (stereo not drawn) | 36.9
2) NC(=O)c1ncn([C@@H]2O[C@H](CO)[C@@H](O)[C@H]2O)n1 [ribavirin, reference compound] | 106
3) COc1ccc(-c2coc3cc(OCC(O)CNC(C)(C)Cc4ccc(F)cc4)ccc3c2=O)cc1OC (stereo not drawn) | 111
4) COc1ccc(CCNCC(O)COc2ccc3c(=O)c(-c4ccc(OC)c(OC)c4)coc3c2)cc1OC (stereo not drawn) | 138
5) CCC(C)(C)NCC(O)COc1ccc2c(=O)c(-c3ccc(OC)c(OC)c3)coc2c1 (stereo not drawn) | 87.9
6) COc1ccc(-c2coc3cc(OCC(O)CNCC4(N5CCOCC5)CCCCC4)ccc3c2=O)cc1OC (stereo not drawn) | 156
7) COc1ccc(-c2coc3cc(OCC(O)CNC(C)(C)c4ccccc4)ccc3c2=O)cc1OC (stereo not drawn) | 47.2
8) COc1ccc(-c2coc3cc(OCC(O)CNC(C)(C)N4CCOCC4)ccc3c2=O)cc1OC (stereo not drawn) | 144
9) COc1ccc(-c2coc3cc(OCC(O)CNCCc4ccc(O)cc4)ccc3c2=O)cc1OC (stereo not drawn) | 71.7

---

- Test system: HCV replication
- Method: Anti-HCV activity in Ava-5 HCV subgenomic replicon cells (firefly luciferase assay)
- Type: cell-based, Hepatitis C virus
- Conditions: Hepatitis C virus, Ava5, 72 h; Ava-5 cells, treated for three days, firefly luciferase assay; read-out: EC50 (concentration resulting in a 50% inhibition in virus production / HCV replication)
The following compounds are shown together with reported EC50 values.
Value kind: EC50 (µM)

1) COc1ccc(CCNCC(O)COc2ccc3c(=O)c(-c4ccc(OC)c(OC)c4)coc3c2)cc1OC (stereo not drawn) | 6.53
2) COc1ccc(-c2coc3cc(OCC(O)CNCCc4c[nH]c5ccccc45)ccc3c2=O)cc1OC (stereo not drawn) | 16.3
3) CCC(C)(C)NCC(O)COc1ccc2c(=O)c(-c3ccc(OC)c(OC)c3)coc2c1 (stereo not drawn) | 8.14
4) COc1ccc(-c2coc3cc(OCC(O)CNC(C)(C)c4ccccc4)ccc3c2=O)cc1OC (stereo not drawn) | 14.3
5) NC(=O)c1ncn([C@@H]2O[C@H](CO)[C@@H](O)[C@H]2O)n1 [ribavirin, reference compound] | 13.2
6) COc1ccc(-c2coc3cc(OCC(O)CNCC4(N5CCOCC5)CCCCC4)ccc3c2=O)cc1OC (stereo not drawn) | 10.7
7) COc1ccc(-c2coc3cc(OCC(O)CNC(C)(C)Cc4ccc(F)cc4)ccc3c2=O)cc1OC (stereo not drawn) | 9.35

---

Recorded melting point, one value per entry.
Value kind: melting point

1. COc1ccc(-c2coc3cc(OCC(O)CNCC4(N5CCOCC5)CCCCC4)ccc3c2=O)cc1OC (stereo not drawn) | 67 to 68 °C
2. COc1ccc(-c2coc3cc(OCC(O)CNCCc4ccc(O)cc4)ccc3c2=O)cc1OC (stereo not drawn) | 117 to 118 °C
3. COc1ccc(-c2coc3cc(OCC(O)CNC(C)(C)Cc4ccc(F)cc4)ccc3c2=O)cc1OC (stereo not drawn) | 151 to 152 °C
4. COc1ccc(-c2coc3cc(OCC(O)CNCCc4c[nH]c5ccccc45)ccc3c2=O)cc1OC (stereo not drawn) | 178 to 179 °C
5. COc1ccc(-c2coc3cc(OCC(O)CNC(C)(C)c4ccccc4)ccc3c2=O)cc1OC (stereo not drawn) | 131 to 132 °C
6. COc1ccc(CCNCC(O)COc2ccc3c(=O)c(-c4ccc(OC)c(OC)c4)coc3c2)cc1OC (stereo not drawn) | 134 to 135 °C
